experimental-system: T1, B7-H3 on CHO-K1 cells stably transfected with B7-H3 (GenScript #M00536) (UniProt Q5ZPR3 29-534, limits assumed)
T1 sequence (looked up): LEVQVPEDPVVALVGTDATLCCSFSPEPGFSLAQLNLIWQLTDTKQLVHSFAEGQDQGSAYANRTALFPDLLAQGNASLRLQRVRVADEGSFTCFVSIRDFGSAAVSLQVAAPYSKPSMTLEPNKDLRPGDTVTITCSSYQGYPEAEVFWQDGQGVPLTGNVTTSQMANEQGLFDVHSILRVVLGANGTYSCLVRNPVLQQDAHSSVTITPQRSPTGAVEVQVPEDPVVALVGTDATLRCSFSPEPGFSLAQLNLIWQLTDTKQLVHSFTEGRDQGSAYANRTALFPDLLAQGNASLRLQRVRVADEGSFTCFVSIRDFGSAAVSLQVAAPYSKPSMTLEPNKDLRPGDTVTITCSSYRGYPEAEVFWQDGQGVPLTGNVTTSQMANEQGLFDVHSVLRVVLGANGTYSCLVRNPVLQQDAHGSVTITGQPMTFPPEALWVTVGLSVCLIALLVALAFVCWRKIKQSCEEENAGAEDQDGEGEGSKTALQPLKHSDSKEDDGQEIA
protocol-text: cell-based or functional assay
measured-metric: ADCC reporter assay, EC50 Value, CHOK1/B7-H3 cells (µg/mL)
Entry rule: numbers only, all in µg/mL.

Please review the following examples before continuing.
{"columns": ["binder", "observed-result"],
 "data": [
  ["40579p1.D8 IgG (antibody, V domains shown) VH: EVQLLESGGGLVQPGGSLRLSCAASGFTFSDYYMSWVRQAPGKGLEWVSSISISYGGTTYYADSVKGRFTISRDNSKNTLYLQMNSLRAEDTAVYYCARDRSPYQCRSMDVWGQGTTVTVSS VL: EIVLTQSPGTLSLSPGERATLSCRASQSIRSDLAWYQQKPGQAPRLLIYNTVTRATGVPDRFSGSGSGTEFTLTISSLQSEDFAVYYCQQYNSWPPLTFGGGTKVEIK", 0.075],
  ["40511p1.1.A1 IgG (antibody, V domains shown) VH: DVQLVESGGGVVRPGESLRLSCAASGFTFSNYAMNWVRQAPGEGLEWVSRINYKGYNITYYADSVKGRFTISRDNSKNTLYLQMNSLRAEDTAVYYCAKSGSNSNNFFDYWGLGTLVTVSS VL: EIVLTQSPGTLSVSPGERATLSCRASQSVNSKLAWYQQRPGQAPRLLIYDASSRATGIPDRFSGSGSGTDFTLTISRLEPEDFAVYYCQQYKNWPPLTFGGGTKVEIK", 0.0124]
]}

In the following, a different binder is considered.
Determine its reported ADCC reporter assay, EC50 Value, CHOK1/B7-H3 cells: 40633p1.1.B3 IgG (antibody, V domains shown) VH: EVQLLESGGGLVQPGGSLRLSCAASGFTVSYYGMSWVRQAPGKGLEWVSAIKQDGSEKYYADSVKGRFTISRDNSKNTLYLQMNSLRAEDTAVYYCARHWNDYSNAMNVWGQGTTVTVSS VL: QSVLTQPPSASGTPGQRVTISCSGSTSNIGRESVYWYQQLPGTAPKLLIYTIDQRPSGVPDRFSGSKSGTSASLAISGLQSEDEADYYCGTWDDSLNAWVFGGGTKLTVL
0.0227
